Just for reference, patent US20100204203A1 is where these values come from.

Target: recombinant Human Phosphodiesterase B2 (PDE4B2) (Homo sapiens, UniProt Q07343)
Sequence (Q07343 1-564 isoform Q07343-2): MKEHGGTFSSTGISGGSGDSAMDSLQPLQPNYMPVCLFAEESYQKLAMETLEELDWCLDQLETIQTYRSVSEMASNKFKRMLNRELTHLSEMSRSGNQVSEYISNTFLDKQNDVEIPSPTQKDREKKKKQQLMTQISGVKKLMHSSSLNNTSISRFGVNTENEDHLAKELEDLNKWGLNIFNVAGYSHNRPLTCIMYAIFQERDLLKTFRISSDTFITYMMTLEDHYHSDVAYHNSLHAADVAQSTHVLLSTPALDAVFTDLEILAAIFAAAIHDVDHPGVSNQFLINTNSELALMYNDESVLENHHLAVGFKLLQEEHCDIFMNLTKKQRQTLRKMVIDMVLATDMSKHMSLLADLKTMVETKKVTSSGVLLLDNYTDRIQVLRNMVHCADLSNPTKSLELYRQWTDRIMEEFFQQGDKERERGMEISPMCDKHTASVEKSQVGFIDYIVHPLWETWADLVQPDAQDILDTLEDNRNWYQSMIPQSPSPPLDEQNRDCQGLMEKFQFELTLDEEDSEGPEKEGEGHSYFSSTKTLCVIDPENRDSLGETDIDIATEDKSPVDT
Assay: Human Phosphodiesterase B2 Radiometric Assay (yttrium silicate SPA beads, [3H]cyclic AMP)
Type: biochemical
Conditions: recombinant human PDE4B2, radiometric SPA assay, 8 nM [3H]cyclic AMP; read-out: PDE4B2 pIC50 (converted)
Experimental: Human Phosphodiesterase B2 Radiometric Assay The assay uses recombinant Human Phosphodiesterase B2 (PDE4B2) produced in house (PrAZL0163), stored at −20° C. […] Bound [3H]cyclic AMP was measured using a Topcount NXT (Packard Bioscience, UK). pIC50 values (presented in Table 15) were determined using Xlfit3 curve fitting, using model 205.
property-label: IC50 (nM)

Look over these answered cases.
CN(C)Cc1cc(F)ccc1-c1cccc(-n2c(=O)n([C@H]3CC[C@@H](NC(=O)c4cn5cc(F)ccc5n4)CC3)c(=O)c3cc(F)cnc32)c1
0.00398
COc1ccc(CN[C@H]2CC[C@@H](n3c(=O)c4cc(F)cnc4n(-c4cccc(-c5ccc(CN6CCCOCC6)cc5)c4)c3=O)CC2)cc1Cl
2
CN(Cc1ccc(-c2cccc(-n3c(=O)n([C@H]4CC[C@@H](NC(=O)C5(N(C)C)CC5)CC4)c(=O)c4cc(F)cnc43)c2)cc1)C(C)(C)C
0.316
O=C(N[C@H]1CC[C@@H](n2c(=O)c3cc(F)cnc3n(-c3cccc(-c4ccc(CN5CCNCC5)cc4Br)c3)c2=O)CC1)c1cn2cc(F)ccc2n1
0.00631
CN1CCCN(Cc2ccc(-c3cccc(-n4c(=O)n([C@H]5CC[C@@H](NC(=O)[C@@H](N)Cc6ccccc6)CC5)c(=O)c5cc(F)cnc54)c3)cc2)CC1
0.2

A = CN(C)CCc1ccc(-c2cccc(-n3c(=O)n([C@H]4CC[C@@H](NC(=O)c5cn6cc(F)ccc6n5)CC4)c(=O)c4cc(F)cnc43)c2)cc1
B = CN(CC(=O)N(C)C)Cc1cc(O)ccc1-c1cccc(-n2c(=O)n([C@H]3CC[C@@H](NCc4cn5cc(F)ccc5n4)CC3)c(=O)c3cc(F)cnc32)c1
C = O=c1c2cc(F)cnc2n(-c2cccc(-c3ccc(O)cc3CN3CCCOCC3)c2)c(=O)n1[C@H]1CC[C@@H](NCc2cccn3ccnc23)CC1
D = CN(C)CCN(C)Cc1ccc(-c2cccc(-n3c(=O)n([C@H]4CC[C@@H](NC(=O)c5cn6c(n5)CCCC6)CC4)c(=O)c4cc(F)cnc43)c2)cc1
E = Cc1cccc(C(=O)N[C@H]2CC[C@@H](n3c(=O)c4cc(F)cnc4n(-c4cccc(-c5ccc(CN6CCCN(C)CC6)cc5)c4)c3=O)CC2)n1
Rank by IC50 (largest to smallest). Please express your ranking as an ordered list of the labels.
C, B, A, E, D
